We begin with a simple list: items and their reported TGI.
tested on: SN12C renal; test: NCI tumour cell line growth inhibition, 48 h

* C[C@]12CCC(=O)C(O)=C1CC[C@@H]1C2CC[C@]2(C)NC(=O)CCC12 (stereo partly drawn) | > 100 µM
* C=CC1CCC[N+]1(CC(=O)OCC)Cc1ccccc1 (stereo not drawn) | > 100 µM

In the following, a different compound is considered.
Incoming: # input compound: `N#Cc1ccc2c(c1)C(=O)c1c-2n(CCCCl)c(=O)c2cc([N+](=O)[O-])ccc12` ; wanted: its TGI
Outgoing: > 100 µM

---

system: T-47D breast; assay: NCI tumour cell line growth inhibition, 48 h
assay metric: TGI

Below, each entry is followed by its recorded TGI result.
* C=C(CN1CCN(c2cccc(C(F)(F)F)n2)CC1)c1ccc(C(=O)Nc2ccccc2N)cc1 | > 100 µM
* O=C1c2ccccc2-c2oc(=O)c3ccccc3c21 | > 100 µM

Incoming: Can you share its TGI? I mean this compound: `CN(C)CCCn1c(Cc2ccc(Cl)cc2)nc2cc(C(F)(F)F)ccc21`
Outgoing: 27.2 µM

Incoming: Same read-out for `O=C1CC(=O)N(C(=O)c2nn(-c3ccc(Cl)cc3)cc2O)N1` ?
Outgoing: > 71.6 µM
